Biological target: Trypsin (Homo sapiens, UniProt P07477+P07478+P35030)
Experiment: Inhibition of trypsin (unknown origin) at 50 uM preincubated with protein for 15 mins followed by boc-Val-Pro-Arg-AMC substrate addition measured by continuous fluorometric analysis
Format: protein assay
Non-standard residues stand in square brackets, D forms with d. Residues, ends and D or L forms follow the SMILES beside them. *: point of attachment. Phe(4-guanidino) = N=C(N)Nc1ccc(C[C@H](N)C(=O)O)cc1; Phe(4-CH2NH2) = NCc1ccc(C[C@H](N)C(=O)O)cc1; Phe(3-CN) = N#Cc1cccc(C[C@H](N)C(=O)O)c1; Phe(4-CN) = N#Cc1ccc(C[C@H](N)C(=O)O)cc1; Phe(4-NH2) = Nc1ccc(C[C@H](N)C(=O)O)cc1; Hydrocinnamoyl = O=C(CCc1ccccc1)*; 3Pal = N[C@@H](Cc1cccnc1)C(=O)O; 4Pal = N[C@@H](Cc1ccncc1)C(=O)O; Phg = N[C@H](C(=O)O)c1ccccc1; Bz = O=C(c1ccccc1)*
Measurement kind: inhibition (%)
Reply numerically in %, unit not repeated.

## Task // lookup inhibition | system=Trypsin (Homo sapiens, UniProt P07477+P07478+P35030) | key= N=C(N)c1cccc(C[C@H](NC(=O)CCc2ccccc2)C(=O)N[C@@H](CCCCN)C(=O)N[C@H](C(N)=O)c2ccccc2)c1
## Result 17.3

## Task Entry NCCCC[C@H](NC(=O)[C@H](Cc1ccncc1)NC(=O)c1ccccc1)C(=O)N[C@H](C(N)=O)c1ccccc1 (Bz-[4Pal]-Lys-[Phg]-NH2) please
## Result 0

## Task Entry CC(=O)Nc1ccc(C[C@H](NC(=O)c2ccccc2)C(=O)N[C@@H](CCCCN)C(=O)N[C@H](C(N)=O)c2ccccc2)cc1 (Bz-[Phe(4-NH2)](Ac)-Lys-[Phg]-NH2) please
## Result 0

## Task Entry NCCCC[C@H](NC(=O)[C@H](Cc1cccc(N)c1)NC(=O)c1ccccc1)C(=O)N[C@H](C(N)=O)c1ccccc1 please
## Result 4.7

## Task Entry N=C(N)Nc1ccc(C[C@H](NC(=O)c2ccccc2)C(=O)N[C@@H](CCCCN)C(=O)N[C@H](C(N)=O)c2ccccc2)cc1 (Bz-[Phe(4-guanidino)]-Lys-[Phg]-NH2) please
## Result 16.2

## Task Entry N#Cc1ccc(C[C@H](NC(=O)c2ccccc2)C(=O)N[C@@H](CCCCN)C(=O)N[C@H](C(N)=O)c2ccccc2)cc1 (Bz-[Phe(4-CN)]-Lys-[Phg]-NH2) please
## Result 0.7

## Task Entry N=C(N)NCCC[C@H](NC(=O)CCc1ccccc1)C(=O)N[C@@H](CCCCN)C(=O)N[C@H](C(N)=O)c1ccccc1 (Hydrocinnamoyl-Arg-Lys-[Phg]-NH2) please
## Result 2.3

## Task Entry N=C(N)c1ccc([C@H](NC(=O)c2ccccc2)C(=O)N[C@@H](CCCCN)C(=O)N[C@H](C(N)=O)c2ccccc2)cc1 please
## Result 19.2

## Task Entry N#Cc1cccc(C[C@H](NC(=O)c2ccccc2)C(=O)N[C@@H](CCCCN)C(=O)N[C@H](C(N)=O)c2ccccc2)c1 (Bz-[Phe(3-CN)]-Lys-[Phg]-NH2) please
## Result 0

## Task Entry NCCCC[C@H](NC(=O)[C@H](Cc1cccnc1)NC(=O)c1ccccc1)C(=O)N[C@H](C(N)=O)c1ccccc1 (Bz-[3Pal]-Lys-[Phg]-NH2) please
## Result 3.4

## Task Entry N=C(N)c1ccc(C[C@H](NC(=O)c2ccc(C(F)(F)F)cc2)C(=O)N[C@@H](CCCCN)C(=O)N[C@H](C(N)=O)c2ccccc2)cc1 please
## Result 43.4

## Task Entry N=C(N)c1cccc(C[C@H](NC(=O)c2ccc(C(F)(F)F)cc2)C(=O)N[C@@H](CCCCN)C(=O)N[C@H](C(N)=O)c2ccccc2)c1 please
## Result 27.1

## Task Entry NCCCC[C@H](NC(=O)[C@H](Cc1cccc(CN)c1)NC(=O)c1ccccc1)C(=O)N[C@H](C(N)=O)c1ccccc1 please
## Result 11.2

## Task Entry NCCCC[C@H](NC(=O)[C@H](Cc1ccc(N)cc1)NC(=O)c1ccccc1)C(=O)N[C@H](C(N)=O)c1ccccc1 (Bz-[Phe(4-NH2)]-Lys-[Phg]-NH2) please
## Result 0

## Task Entry N=C(N)Nc1cccc([C@H](NC(=O)c2ccccc2)C(=O)N[C@@H](CCCCN)C(=O)N[C@H](C(N)=O)c2ccccc2)c1 please
## Result 90.8

## Task Entry N=C(N)Nc1ccc(C[C@H](NC(=O)c2ccc(C(F)(F)F)cc2)C(=O)N[C@@H](CCCCN)C(=O)N[C@H](C(N)=O)c2ccccc2)cc1 please
## Result 12.8

## Task Entry N=C(N)NCCC[C@H](NC(=O)c1ccccc1)C(=O)N[C@@H](CCCCN)C(=O)N[C@H](C(N)=O)c1ccccc1 (Bz-Arg-Lys-[Phg]-NH2) please
## Result 0.5

## Task Entry N=C(N)c1cccc(C[C@H](NC(=O)c2ccccc2)C(=O)N[C@@H](CCCCN)C(=O)N[C@H](C(N)=O)c2ccccc2)c1 please
## Result 37

## Task Entry N=C(N)NCCC[C@H](NC(=O)c1ccc(C(F)(F)F)cc1)C(=O)N[C@@H](CCCCN)C(=O)N[C@H](C(N)=O)c1ccccc1 please
## Result 11.5

## Task Entry N=C(N)Nc1cccc(C[C@H](NC(=O)c2ccccc2)C(=O)N[C@@H](CCCCN)C(=O)N[C@H](C(N)=O)c2ccccc2)c1 please
## Result 78.5

## Task Entry N=C(N)Nc1ccc(C[C@H](NC(=O)CCc2ccccc2)C(=O)N[C@@H](CCCCN)C(=O)N[C@H](C(N)=O)c2ccccc2)cc1 (Hydrocinnamoyl-[Phe(4-guanidino)]-Lys-[Phg]-NH2) please
## Result 23.6

## Task Entry N=C(N)c1ccc(C[C@H](NC(=O)CCc2ccccc2)C(=O)N[C@@H](CCCCN)C(=O)N[C@H](C(N)=O)c2ccccc2)cc1 please
## Result 4.4

## Task Entry NCCCC[C@H](NC(=O)[C@H](Cc1ccc(CN)cc1)NC(=O)c1ccccc1)C(=O)N[C@H](C(N)=O)c1ccccc1 (Bz-[Phe(4-CH2NH2)]-Lys-[Phg]-NH2) please
## Result 1.5

## Task Entry N=C(N)c1ccc(C[C@H](NC(=O)c2ccccc2)C(=O)N[C@@H](CCCCN)C(=O)N[C@H](C(N)=O)c2ccccc2)cc1 please
## Result 17.4

## Task Entry CC(=N)Nc1ccc(C[C@H](NC(=O)c2ccccc2)C(=O)N[C@@H](CCCCN)C(=O)N[C@H](C(N)=O)c2ccccc2)cc1 please
## Result 0
